# Test system: A549
# measurement description: Antiproliferative activity against human A549 cells assessed as cell growth inhibition
# Format: functional, cell-based
pIC50: −log10 of the molar value.
quantity name: pIC50

Solved entries:
Quick one: pIC50 of COc1cc(C2=NNC(c3cccc4ccccc34)C2)cc(OC)c1OC (stereo unspecified) ?
< 5.00

And for CCn1c2ccccc2c2cc(C3CC(c4cc(OC)c(OC)c(OC)c4)=NN3)ccc21 (stereo unspecified) ?
< 5.00

Try this compound too: COc1cc(C2=NNC(c3ccc4c(c3)OCCO4)C2)cc(OC)c1OC (stereo unspecified)
< 5.00

Next:
For the compound COc1cc(C(/C=C/c2ccc3occc3c2)=N/O)cc(OC)c1OC , what pIC50 is on record?
< 5.00

Repeat with COc1cc(C(/C=C/c2ccc3ncccc3c2)=N/O)cc(OC)c1OC
6.35

Input COc1cc(C2=NOC(c3ccc4occc4c3)C2)cc(OC)c1OC (stereo unspecified)
< 5.00

Please answer likewise for COc1cc(C2=NNC(c3c[nH]c4cc(Br)ccc34)C2)cc(OC)c1OC (stereo unspecified)
5.47

For COc1cc(-c2cc(-c3cccc4c3OCO4)on2)cc(OC)c1OC then?
< 5.00

Try COc1cc(C2=NNC(c3ccc4ccccc4c3)C2)cc(OC)c1OC (stereo unspecified) next.
< 5.00

Next record, please: COc1cc(C2=NOC(c3ccc4sc5ccccc5c4c3)C2)cc(OC)c1OC (stereo unspecified)
< 5.00

Item: COc1cc(C2=NOC(c3ccc4ccccc4c3)C2)cc(OC)c1OC (stereo unspecified)
< 5.00

* * *

# Test system: A549
# measurement description: Antiproliferative activity against human A549 cells assessed as cell growth inhibition
# Type: functional, cell-based
// values below are reported IC50
Enter your answer as a number in µM; do not include the unit.

What value of measured IC50 is listed for COc1cc(C2=NNC(c3ccc4[nH]ccc4c3)C2)cc(OC)c1OC (stereo not given) ?
2.79

Could you now consider this next molecule?
For COc1cc(-c2cc(-c3ccc4c(c3)OCCO4)on2)cc(OC)c1OC , what is its reported IC50?
5.9

* * *

# pIC50 per entry
# System: A549
# measurement description: Antiproliferative activity against human A549 cells assessed as cell growth inhibition
# Format: functional, cell-based
pIC50: −log10 of the molar value.

Use the examples below as a reference point.
Lab note: need pIC50 with A549 for entry COc1cc(C(/C=C/c2ccc3oc4ccccc4c3c2)=N/O)cc(OC)c1OC , please look it up.
< 5.00

Moving on to the next compound: COC(=O)c1ccc2c(C3CC(c4cc(OC)c(OC)c(OC)c4)=NO3)c[nH]c2c1 (stereo not drawn)
< 5.00

Shifting focus to the compound that follows.
Notebook entry, A549 assay: pIC50 of COc1cc(C2=NNC(c3ccc4c(c3)CCO4)C2)cc(OC)c1OC (stereo not drawn) = ?
< 5.00
